Biological target: Recombinant human integrin ανβ3 (Homo sapiens, UniProt P05106+P06756)
Sequence (P06756 31-992 limits assumed): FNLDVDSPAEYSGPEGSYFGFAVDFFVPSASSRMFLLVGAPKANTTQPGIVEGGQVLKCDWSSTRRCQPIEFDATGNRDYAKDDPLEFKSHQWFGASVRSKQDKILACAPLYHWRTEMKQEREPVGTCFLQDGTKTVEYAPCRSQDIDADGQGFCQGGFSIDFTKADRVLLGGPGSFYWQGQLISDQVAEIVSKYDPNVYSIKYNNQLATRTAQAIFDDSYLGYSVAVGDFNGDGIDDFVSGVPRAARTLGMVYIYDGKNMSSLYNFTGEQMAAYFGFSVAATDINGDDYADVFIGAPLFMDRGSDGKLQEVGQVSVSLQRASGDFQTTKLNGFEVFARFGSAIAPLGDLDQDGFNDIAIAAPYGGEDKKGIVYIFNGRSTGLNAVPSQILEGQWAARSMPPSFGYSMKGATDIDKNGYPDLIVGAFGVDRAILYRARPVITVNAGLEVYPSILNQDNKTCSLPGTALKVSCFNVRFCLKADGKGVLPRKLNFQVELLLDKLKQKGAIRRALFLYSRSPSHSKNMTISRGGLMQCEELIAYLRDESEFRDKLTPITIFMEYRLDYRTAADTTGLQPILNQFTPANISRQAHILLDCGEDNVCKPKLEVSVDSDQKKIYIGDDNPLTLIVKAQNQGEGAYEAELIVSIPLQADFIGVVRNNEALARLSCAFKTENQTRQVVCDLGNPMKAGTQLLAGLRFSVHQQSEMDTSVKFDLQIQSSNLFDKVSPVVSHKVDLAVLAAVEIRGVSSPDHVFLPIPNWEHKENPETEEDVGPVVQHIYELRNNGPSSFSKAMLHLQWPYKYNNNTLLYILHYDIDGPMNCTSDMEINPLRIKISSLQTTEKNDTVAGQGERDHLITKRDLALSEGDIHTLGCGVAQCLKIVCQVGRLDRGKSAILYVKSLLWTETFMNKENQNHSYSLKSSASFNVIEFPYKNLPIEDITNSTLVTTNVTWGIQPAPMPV
Sequence (P05106 27-718 limits assumed): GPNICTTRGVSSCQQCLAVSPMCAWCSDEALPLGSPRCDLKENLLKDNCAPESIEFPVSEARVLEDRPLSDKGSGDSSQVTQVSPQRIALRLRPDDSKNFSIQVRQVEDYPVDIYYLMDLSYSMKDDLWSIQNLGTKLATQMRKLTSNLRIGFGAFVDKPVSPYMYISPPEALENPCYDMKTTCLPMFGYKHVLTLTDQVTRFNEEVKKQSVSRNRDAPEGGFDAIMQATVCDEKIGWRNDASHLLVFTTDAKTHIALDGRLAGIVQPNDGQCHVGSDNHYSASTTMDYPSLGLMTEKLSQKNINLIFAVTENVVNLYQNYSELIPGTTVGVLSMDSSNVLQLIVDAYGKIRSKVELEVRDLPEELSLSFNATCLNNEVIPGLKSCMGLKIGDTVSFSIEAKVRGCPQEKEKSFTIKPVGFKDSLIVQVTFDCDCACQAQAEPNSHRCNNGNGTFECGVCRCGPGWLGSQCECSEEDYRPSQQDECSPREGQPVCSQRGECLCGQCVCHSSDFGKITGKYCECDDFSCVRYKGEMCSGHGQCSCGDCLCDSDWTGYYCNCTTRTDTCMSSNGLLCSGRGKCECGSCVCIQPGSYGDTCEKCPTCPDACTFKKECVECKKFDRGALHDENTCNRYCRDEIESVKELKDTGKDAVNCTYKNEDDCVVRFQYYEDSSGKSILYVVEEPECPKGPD
Assay: Solid Phase Receptor Assay (SPRA) for ανβ3 function
Conditions: plate-bound human vitronectin; read-out: αvβ3 SPRA IC50
Procedure: C. Solid Phase Receptor Assay (SPRA) for ανβ3 Function Wells were washed 3 times with 150 μL TBS+ and then 150 μL of blocking buffer (TBS+ with 1% bovine serum albumin, Sigma A7906) was added. The plate was incubated for 1 hr at 37° C. and then washed 3× with TBS+ buffer. […] 25 μL of 1.0 M phosphoric acid was added as a stop solution and the plates were read at 450 nm using a Spectramax plate reader.
Where a name gives a salt, the structure may show the parent alone.
Quantity Name: IC50 (nM)
The answer is to be given in nM; state only the numeric part.

Endpoint output: IC50 of COc1ccc(C(F)(F)F)cc1C(CC(=O)O)Cc1cc(OCCc2ccc3c(n2)NCCC3)n(C)n1 (stereo not drawn) [Example 13, Trifluoroacetate] . Value? 11

Endpoint output: IC50 of COc1ccc(C(CC(=O)O)Cc2cc(OCCc3ccc4c(n3)NCCC4)n(C)n2)cc1F (stereo not drawn) . Value? 3

***
Endpoint output: IC50 of COc1ccc(Br)cc1C(CC(=O)O)Cc1cc(OCCc2ccc3c(n2)NCCC3)n(C)n1 (stereo not drawn) [Example 14, trifluoroacetate] . Value? 6.7
